Hello, the source for this data is ChEMBL document CHEMBL1201862, in case you need it.

Some molecules, each annotated with its measured GI50.
Test system: K562
Assay: NCI tumour cell line growth inhibition, 48 h
Activity calls are given as the source filed them. Rule as the data show it: active = GI50 up to about 1.1 µM and inactive = higher.

INSERT INTO results (molecule, experimental_system, result) VALUES
  ('CCC(C)N1CN(c2ccccc2)C2(CCN(CCCC3(c4ccc(F)cc4)OCCO3)CC2)C1=O (configuration not stated)', 'K562', '8.24 µM (inactive)'),
  ('CS(=O)(=O)N(CC(=O)O)Cc1ccccc1', 'K562', '> 100 µM (inactive)'),
  ('O=C1O/C(=C\c2ccc(O)c(Br)c2)C(c2ccc(O)cc2)=C1Cl', 'K562', '68.4 µM (inactive)'),
  ('CC(C)=CCC/C(C)=C/CCC1(C)C2COC(=O)C21 (configuration not stated)', 'K562', '22.6 µM (inactive)'),
  ('CCN1CCC(O)(C(C(=O)O)c2ccccc2)CC1 (configuration not stated)', 'K562', '> 100 µM (inactive)'),
  ('NC1=NN(c2ccccc2)C(=O)C1/C(=N\NC(=O)c1cc2ccccc2cc1O)C(=O)Nc1nc([N+](=O)[O-])cs1 (configuration not stated)', 'K562', '9.64 µM (inactive)'),
  ('COc1ccc(-c2cc3cc(Cl)cc(Cl)c3oc2=O)cc1OC', 'K562', '33.3 µM (inactive)'),
  ('COC(=O)C(CCC1C=CN(S(=O)(=O)c2ccc(C)cc2)C1)/N=C/c1ccccc1 (configuration not stated)', 'K562', '34.7 µM (inactive)'),
  ('NC(CCc1nc(-c2ccccc2)cs1)C(=O)O (configuration not stated)', 'K562', '> 100 µM (inactive)'),
  ('CCOC(=O)N1CCN(P(=O)(Nc2ccc3[nH]c(NC(=O)OC)nc3c2)Oc2ccccc2)CC1 (configuration not stated)', 'K562', '35 µM (inactive)');

Request: Give K562 GI50 for CCN(CC)CC1CCCCN1CC(=O)N1c2ccccc2NC(=O)CC1C (configuration not stated)
Result: > 100 µM (inactive)

Request: Give K562 GI50 for Cc1ccc(C2=C(Cl)C(=O)C(c3ccc(C)cc3)=C(Cl)C2=O)cc1
Result: > 100 µM (inactive)

----------
Test system: A498
Assay: NCI tumour cell line growth inhibition, 48 h
The source made the active and inactive calls. Rule as the data show it: active = GI50 up to about 1.1 µM and inactive = higher.
// classify into YES for active, NO for inactive

Check out these entries, answers already filled in.
INSERT INTO assay_data (molecule, discrete_label) VALUES
  ('NC(=O)Cn1c(=O)[nH]c(=O)c2[nH]cnc21', 'NO'),
  ('Cc1[nH]c2ccccc2c1C(=O)CC1(O)C(=O)Nc2ccccc21 (stereo not drawn)', 'NO'),
  ('O=S(=O)(c1ccccc1)c1ccc(/N=N/O)nc1', 'NO'),
  ('Cc1cc2c(=O)c3ccccc3oc2c(C#N)c1C', 'NO'),
  ('C=C1C[C@@H](O)[C@@H](Br)C(C)(C)[C@@]12C=CC(=O)CC2', 'NO'),
  ('Cc1ccc(-n2nc(C(OC3OC(CO)C(O)C(O)C3O)C(O)CO)c3nc4cc(C)c(C)cc4nc32)cc1 (stereo not drawn)', 'NO'),
  ('CCCc1cc(OC(=O)c2c(O)cc(OC)cc2CCC)cc(O)c1C(=O)O', 'NO'),
  ('CCN(CC)CC1CCCCN1CC(=O)N1c2ccccc2NC(=O)CC1C (stereo not drawn)', 'NO'),
  ('CCOC(=O)Nc1ccc2c(c1)N(C(=O)CCN(CC)CC)c1ccccc1S2', 'NO'),
  ('COCCCNc1nc(N)c(C#N)c(C#N)c1C#N', 'NO');

Shift focus to the following entry.
Request: For CN(C)c1ccc(C=C2C(=O)N(c3ccccc3)N(c3ccccc3)C2=O)cc1 , which call appears in the assay record?
Result: NO

----------
Some compounds, each annotated with its measured GI50.
Test system: SF-268
Assay: NCI tumour cell line growth inhibition, 48 h
Calls of active or inactive are those of the source. No stated cut-off is given here; in the data, active = GI50 up to about 1.1 µM and inactive = higher.

INSERT INTO results (compound, result) VALUES
  ('O=C(O)CCC(=O)Oc1ccc(O)c2c1CCCC2=O', '> 100 µM (inactive)');

Request: Using the record for CC(/C=C/C=C\C=C\C=C(/C)C(=O)NC(C)CO)=C\C(C)C(O)/C(C)=C/C(C)CCc1ccccc1 (stereo not drawn) , report its GI50.
Result: 13.5 µM (inactive)

Request: Using the record for CCOC(=O)/C=C(/C(=O)OCC)n1cnc2c(=O)[nH]c(NC(C)=O)nc21 , report its GI50.
Result: > 100 µM (inactive)

Request: Using the record for O=C1/C(=C/c2cccnc2)SC(=S)N1Cc1ccco1 , report its GI50.
Result: 5.94 µM (inactive)

Request: Using the record for CCN(CC)CC1CCCCN1CC(=O)N1c2ccccc2NC(=O)CC1C (stereo not drawn) , report its GI50.
Result: > 100 µM (inactive)

Request: Using the record for C[C@@H](c1ccccc1)N1CN(C(=O)OCc2ccccc2)C(CO)C1=O (stereo partly drawn) , report its GI50.
Result: > 100 µM (inactive)

Request: Using the record for COc1ccc(C2SCC(=O)N2c2ccc(-c3ccc(-n4c(-c5ccccc5)nc5ccccc5c4=O)cc3)cc2)cc1 (stereo not drawn) , report its GI50.
Result: > 100 µM (inactive)

Request: Using the record for COC(=O)C(CCCCN)NC(C)=O.Cc1ccc(C(=O)Nc2ccc(S(=O)(=O)O)c3cc(S(=O)(=O)O)cc(S(=O)(=O)O)c23)cc1NC(=O)c1cccc(NC(=O)Nc2cccc(C(=O)Nc3cc(C(=O)Nc4ccc(S(=O)(=O)O)c5cc(S(=O)(=O)O)cc(S(=O)(=O)O)c45)ccc3C)c2)c1 , report its GI50.
Result: > 50 µM (inactive)

----------
Test system: NCI/ADR-RES
Assay: NCI tumour cell line growth inhibition, 48 h
The source made the active and inactive calls. Cut-off read from the data, not from the text of the source: active = GI50 up to about 1.1 µM and inactive = higher.
// classify into active, inactive

INSERT INTO assay_data (compound, discrete_label) VALUES
  ('Cn1c(=O)[nH]c2nccnc2c1=O', 'inactive'),
  ('O=C(C1OC1c1ccc(F)cc1)C12CC3CC(CC(C3)C1)C2 (centres undefined)', 'inactive'),
  ('O=C1CSC(c2ccccc2[N+](=O)[O-])N1c1ccc(-c2ccc(-n3c(-c4ccccc4)nc4ccccc4c3=O)cc2)cc1 (centres undefined)', 'inactive'),
  ('C[C@@H](c1ccccc1)N1CN(C(=O)OCc2ccccc2)C(CO)C1=O (some centres undefined)', 'inactive'),
  ('COc1cc([C@H]2c3[nH]c4ccccc4c3C[C@H]3COC(=O)N32)cc(OC)c1O', 'active'),
  ('COc1ccc(-n2sc3ncccc3c2=O)cc1', 'inactive'),
  ('O=[N+]([O-])c1ccc2c(c1)Cc1cc(/N=C/c3ccc4c(c3)OCO4)ccc1-2', 'inactive'),
  ('CC(C)(C)OC(=O)N1CCc2[nH][nH]c(=O)c2C1', 'inactive');

Request: For CC1=NN(c2nc(N)nc(-c3ccccc3S(N)(=O)=O)n2)C(C)(C)C1 , which call appears in the assay record?
Result: inactive

----------
Tested on: SNB-19
Assay: NCI tumour cell line growth inhibition, 48 h
Active and inactive are the calls of the source. Cut-off read from the data, not from the text of the source: active = GI50 up to about 1.1 µM and inactive = higher.
Readout label: GI50

# example entries with known answers
INSERT INTO assay_data (compound, experimental_system, result) VALUES
  ('CNC1=C/C(=N/C2=CC(=N/C(=C\C#N)C(C)(C)O)/OC2(C)C)OC1(C)C', 'SNB-19', '33 µM (inactive)'),
  ('O=c1c(-c2c(-c3ccccc3)oc3ccc(Cl)cc3c2=O)c(-c2ccccc2)oc2ccc(Cl)cc12', 'SNB-19', '> 100 µM (inactive)'),
  ('O=C(NCCCCCCNC(=O)OCCSCCn1cc(C(=O)NC(=O)OCc2ccccc2)c(=O)[nH]c1=O)OCCSCCn1cc(C(=O)NC(=O)OCc2ccccc2)c(=O)[nH]c1=O', 'SNB-19', '> 100 µM (inactive)'),
  ('COC(=O)c1cccc(C)c1C1CN=NC12Cc1c(ccc(C)c1C)C2=O (stereo not given)', 'SNB-19', '55 µM (inactive)'),
  ('Cc1nnc([C@@]2(C)CC[C@H]3[C@@H](CCC4=CC(=O)CC[C@@]43C)[C@@H]2CC#N)o1', 'SNB-19', '> 100 µM (inactive)'),
  ('CC(=O)OCC1OC(n2c(=O)[nH]c(=O)c3sccc32)C(Br)C1OC(C)=O (stereo not given)', 'SNB-19', '> 100 µM (inactive)');

Request: Using the record for COC(=O)C(C(=O)C(=O)Nc1nnc(S)[nH]1)c1csc(-n2nc(-c3ccccc3)cc2-c2ccccc2)n1 (stereo not given) , report its GI50.
Result: > 100 µM (inactive)

Request: Using the record for O/N=N/c1ccc(-c2ccccc2)cn1 , report its GI50.
Result: 18.1 µM (inactive)

Request: Using the record for N#CC(C#N)=C1NC(=O)C(c2ccccc2)C(=O)N1 (stereo not given) , report its GI50.
Result: > 100 µM (inactive)

Request: Using the record for CCCCCCC(N)(CCCCCC)C(=O)Nn1c(C)ccc1C , report its GI50.
Result: > 100 µM (inactive)

Request: Using the record for NS(=O)(=O)c1ccc2c(c1)OCCOCCOCCOCCO2 , report its GI50.
Result: > 100 µM (inactive)

Request: Using the record for COC(=O)CCC(C)[C@H]1CCC2C3C(C[C@H](OC(C)=O)[C@@]21C)[C@@]1(C)CCC2(C[C@H]1C[C@H]3OC(C)=O)OOC1(CCCCCCC1)OO2 (stereo not given in full) , report its GI50.
Result: > 100 µM (inactive)

Request: Using the record for CC(=O)O[C@H]1C[C@H]2[C@@H]([C@H](OC(C)=O)C[C@@H]3CC4(CC[C@@]32C)OOC2(CCCCC2)OO4)[C@@H]2CC[C@H]([C@H](C)CCC(=O)O)[C@@]12C , report its GI50.
Result: 6.71 µM (inactive)

Request: Using the record for COC(=O)C(CCC1C=CN(S(=O)(=O)c2ccc(C)cc2)C1)/N=C/c1ccccc1 (stereo not given) , report its GI50.
Result: 45 µM (inactive)

Request: Using the record for COC(=O)[C@]1(C)CC[C@]2(C)CC[C@]3(C)C4[C@H]5Oc6c(cc7c(c6C)CCC6[C@@]7(C)CC[C@@]7(C)C8[C@](C)(CCC[C@@]8(C)C(=O)OC)CC[C@]67C)O[C@H]5c5c(cc6c(c5C)O[C@@]5(C)C7=CC=C8[C@@](C)(CC[C@@]9(C)[C@@H]%10C[C@](C)(C(=O)OC)CC[C@]%10(C)CC[C@]89C)C7=CC(=O)[C@@]5(O)O6)[C@]4(C)CC[C@@]3(C)C2C1 (stereo not given in full) , report its GI50.
Result: 5.05 µM (inactive)
